tested on: A431; assay: whole-cell filipin (free cholesterol) integrated intensity, Z-score; higher = more cholesterol staining; conditions: compound concentration in added solution (µM; 5 µl added to 20 µl cells): 10; 18 h
Where a name gives a salt, the structure may show the parent alone.
Metric name: whole-cell filipin (z-score)

[[record]]
molecule = "CCC(NC(C)C)C(O)c1ccc(O)c(O)c1 (stereo not drawn) [Isoetharine mesylate salt]"
metric_name = "whole-cell filipin (z-score)"
number = 0.269

[[record]]
molecule = "COc1ncnc(NS(=O)(=O)c2ccc(N)cc2)c1OC"
metric_name = "whole-cell filipin (z-score)"
number = 0.0314

[[record]]
molecule = "CCOC(=O)c1ccc(N)cc1"
metric_name = "whole-cell filipin (z-score)"
number = -0.4

[[record]]
molecule = "C#C[C@]1(O)CC[C@H]2[C@@H]3CCC4=CC(=O)CC[C@@H]4[C@H]3CC[C@@]21CC [Norgestrel-(-)-D]"
metric_name = "whole-cell filipin (z-score)"
number = -0.421

[[record]]
molecule = "CCCCC(C)(O)C/C=C/[C@H]1[C@H](O)CC(=O)[C@@H]1CCCCCCC(=O)OC (mixture of isomers)"
metric_name = "whole-cell filipin (z-score)"
number = 0.395

[[record]]
molecule = "CC(=O)OCC(=O)[C@@]1(O)CC[C@H]2[C@@H]3CCC4=CC(=O)CC[C@]4(C)[C@@]3(F)[C@@H](O)C[C@@]21C [Fludrocortisone acetate]"
metric_name = "whole-cell filipin (z-score)"
number = -0.382

[[record]]
molecule = "C[C@H](CS)C(=O)N1CCC[C@H]1C(=O)O"
metric_name = "whole-cell filipin (z-score)"
number = -0.482

[[record]]
molecule = "COC(=O)N/N=C/c1c[n+]([O-])c2ccccc2[n+]1[O-]"
metric_name = "whole-cell filipin (z-score)"
number = -0.439


* * *

tested on: HeLa MZ; test: LBPA endosome anti-LBPA integrated intensity (sum per cell), Z-score; higher = more LBPA staining; settings: compound concentration in added solution (µM; 5 µl added to 20 µl cells): 10; 18 h
Where a name gives a salt, the structure may show the parent alone.
Rule: LBPA endosome anti-LBPA integrated intensity (z-score) of -0.4 or more gives t; anything lower gives f.

[[record]]
compound = "CNC(=C[N+](=O)[O-])NCCSCc1csc(CN(C)C)n1"
tested_on = "HeLa MZ"
class = "t"

[[record]]
compound = "Cc1ncc(CO)c(CO)c1O [Pyridoxine hydrochloride]"
tested_on = "HeLa MZ"
class = "f"

[[record]]
compound = "CN(C)CC/C=C1\\c2ccccc2CSc2ccccc21 [Dosulepin hydrochloride]"
tested_on = "HeLa MZ"
class = "t"

[[record]]
compound = "C=CCSCC1Nc2cc(Cl)c(S(N)(=O)=O)cc2S(=O)(=O)N1 (stereo not given) [Althiazide]"
tested_on = "HeLa MZ"
class = "f"


* * *

tested on: A431; experiment: whole-cell filipin (free cholesterol) integrated intensity, Z-score; higher = more cholesterol staining; details: compound concentration in added solution (µM; 5 µl added to 20 µl cells): 10; 18 h
Counter-ions that a name gives are not always drawn.
Rule: whole-cell filipin (z-score) of -0.2 or more gives yes (1); anything lower gives no (0).

[[record]]
compound = "NC[C@H]1CC[C@H](C(=O)O)CC1 [Tranexamic acid]"
class = "no (0)"

[[record]]
compound = "CCOC(=O)C(C)(C)Oc1ccc(Cl)cc1 [Clofibrate]"
class = "yes (1)"

[[record]]
compound = "CC(N/C(=N\\C#N)Nc1ccncc1)C(C)(C)C (centres undefined) [Pinacidil]"
class = "no (0)"

[[record]]
compound = "NC(CO)C(=O)NNCc1ccc(O)c(O)c1O (centres undefined) [Benserazide hydrochloride]"
class = "no (0)"

[[record]]
compound = "CN1CCN(c2c(F)cc3c(=O)c(C(=O)O)cn(CCF)c3c2F)CC1 [Fleroxacin]"
class = "yes (1)"

[[record]]
compound = "CC[N+](C)(CC)CCOC(=O)C1c2ccccc2Oc2ccccc21 [Methantheline bromide]"
class = "yes (1)"

[[record]]
compound = "N=C(N)NCC1COC2(CCCCC2)O1 (centres undefined) [Guanadrel sulfate]"
class = "no (0)"

[[record]]
compound = "CC[C@]12CCCN3CCc4c(n(c5ccccc45)[C@@](O)(C(=O)OC)C1)[C@@H]32 [Vincamine]"
class = "no (0)"

[[record]]
compound = "NC(=O)OCC(O)COc1ccc(Cl)cc1 (centres undefined) [Chlorphensin carbamate]"
class = "no (0)"

[[record]]
compound = "CCCCOc1cc(C(=O)OCCN(CC)CC)ccc1N [Benoxinate hydrochloride]"
class = "yes (1)"

[[record]]
compound = "CC1CC(OC(=O)c2ccccc2O)CC(C)(C)C1 (centres undefined) [Homosalate]"
class = "yes (1)"

[[record]]
compound = "O=C(COc1ccc(Cl)cc1)N1CCN(Cc2ccc3c(c2)OCO3)CC1 [Fipexide hydrochloride]"
class = "no (0)"

[[record]]
compound = "CC(C)(Oc1ccc(Cl)cc1)C(=O)O [Clofibric acid]"
class = "no (0)"

[[record]]
compound = "CO[C@@]1(NC(=O)CSCC#N)C(=O)N2C(C(=O)O)=C(CSc3nnnn3C)CS[C@@H]21 [Cefmetazole sodium salt]"
class = "no (0)"

[[record]]
compound = "CNC1(C)C2CCC(C2)C1(C)C (centres undefined) [Mecamylamine hydrochloride]"
class = "no (0)"

[[record]]
compound = "CC(C)NC[C@@H](O)COc1cccc2ccccc12 [(R)-Propranolol hydrochloride]"
class = "yes (1)"

[[record]]
compound = "COc1ccc2cc([C@@H](C)C(=O)O)ccc2c1 [(R) -Naproxen sodium salt]"
class = "no (0)"

[[record]]
compound = "CCC[C@@H]1C[C@@H](C(=O)N[C@@H]([C@H]2O[C@H](SC)[C@H](O)[C@@H](O)[C@H]2O)[C@H](C)Cl)N(C)C1 [Clindamycin hydrochloride]"
class = "no (0)"

[[record]]
compound = "COc1ccc(-c2cc(=S)ss2)cc1 [Anethole-trithione]"
class = "yes (1)"


# credit: the supplement of paper PMC6607015
